Target: ScHof1
Experiment: SPOT peptide array binding signal intensity (averaged, normalized) (arbitrary units (background-subtracted, floor 0; scale differs between SH3 domains)); higher = stronger binding of the SH3 domain to the peptide
Measured SPOT peptide array binding signal intensity, listed per entry for reference.
attribute_measured: SPOT peptide array binding signal intensity

{"binder": "PSPSSSPPPIPKTAN", "measured_value": "≤ 0"}
{"binder": "GDHPKGPPPPPPPPD", "measured_value": "≤ 0"}
{"binder": "PKMLPIPSKPTLFDL", "measured_value": "≤ 0"}
{"binder": "RRRRRPHRIERPLSN", "measured_value": "≤ 0"}
{"binder": "DTIDNVKSKIQDKEG", "measured_value": "≤ 0"}
{"binder": "TKHKAPPPPPPTAET", "measured_value": "≤ 0"}
{"binder": "LKHGWKPLRPIKLIS", "measured_value": "≤ 0"}
{"binder": "VSKLRSPNTPRRLRK", "measured_value": "≤ 0"}
{"binder": "LYKRKPILLPDPKPL", "measured_value": "≤ 0"}

These measurements were taken from the supplement of paper PMC4466140.
